assay explanation: Lipophilicity, logD of the compound by UPLC analysis
Assay type: physicochemical
applied conditions: octanol/water
Label Condition met for high-side logD (at or above 3) and Condition not met for low-side logD (below it).

>>> answer_label("Cn1cccc1C(=O)N1CCN(C(=O)Nc2ccc(N3CCC(C(=O)N4CCN(c5cccc6c5C(=O)N(C5CCC(=O)NC5=O)C6=O)CC4)CC3)cc2)CC1 (stereo not drawn)")
"Condition not met"
>>> answer_label("O=C1CCC(N2C(=O)c3ccc(N4CCN(C(=O)C5CCN(c6ccc(NC(=O)c7cnc(Oc8ccccc8)nc7)cc6)CC5)CC4)cc3C2=O)C(=O)N1 (stereo not drawn)")
"Condition met"
>>> answer_label("O=C1CCC(N2C(=O)c3cccc(N4CCN(C(=O)C5CCN(c6ccc(NC(=O)c7cnc(Oc8ccccc8)nc7)cc6)CC5)CC4)c3C2=O)C(=O)N1 (stereo not drawn)")
"Condition met"

Quick check, logD >= 3? O=C1CCC(N2C(=O)c3cc(F)c(N4CCN(C(=O)C5CCN(c6ccc(NC(=O)c7cnc(Oc8ccccc8)nc7)cc6)CC5)CC4)cc3C2=O)C(=O)N1 (stereo not drawn)
Condition met

Does Cn1cccc1C(=O)N1CCN(C(=O)Nc2ccc(N3CCC(C(=O)N4CCOCC4)CC3)cc2)CC1 have a reported logD of at least 3?
Condition not met

Hello, I need to know if Cn1cccc1C(=O)N1CCN(C(=O)Nc2ccc(N3CCC(C(=O)N4CCN(c5ccc6c(c5)C(=O)N(C5CCC(=O)NC5=O)C6=O)CC4)CC3)cc2)CC1 (stereo not drawn) has measured logD not below 3. Thanks!
Condition not met
